Hi there, I'd appreciate the recorded efflux ratio for every entry that follows.
assay: Efflux ratio of permeability in human Caco-2 cells; format: ADME, cell-based
Answer with a number only.

efflux ratio reported for this molecule `C[C@@H](NC(=O)c1nn(-c2ccccc2Cl)c(-c2ccc(Cl)cc2)c1Cc1nn[nH]n1)c1ccc(C(F)(F)F)cc1` : 1

efflux ratio reported for this molecule `O=C(O)Cc1c(C(=O)N2CCC(c3ccccc3F)CC2)nn(-c2ccccc2Cl)c1-c1ccc(Cl)cc1` : 1.3

* * *

Hi there, I'd appreciate the recorded Cmax for every entry that follows.
test: Cmax in NMRI mouse at 10 mg/kg, po; assay type: ADME, organism-based; design: dose 10 mg/kg, route po; conditions: in vivo

Cmax reported for this molecule `C[C@@H](NC(=O)c1nn(-c2ccccc2Cl)c(-c2ccc(Cl)cc2)c1Cc1nn[nH]n1)c1ccc(C(F)(F)F)cc1` : 13 µM

Cmax reported for this molecule `O=C(O)Cc1c(C(=O)N2CCC(c3ccccc3F)CC2)nn(-c2ccccc2Cl)c1-c1ccc(Cl)cc1` : 47 µM

Provenance of the data: ChEMBL document CHEMBL5356956
